List of TGI values.
# Tested on: NCI-H522 lung
# Experiment notes: NCI tumour cell line growth inhibition, 48 h

# count of solved cases: 2
- Compound: "Cc1cc(C)nc(NS(=O)(=O)c2ccc(Nc3c4ccccc4nc4ccc(C(=O)Nc5ccc(S(N)(=O)=O)cc5)cc34)cc2)n1"
  TGI: "> 100 µM"
- Compound: "[N-]=[N+]=NCCCn1c2c(c3ccc([N+](=O)[O-])cc3c1=O)C(=O)c1ccccc1-2"
  TGI: "> 100 µM"

Query string: Lab note: need TGI with NCI-H522 lung for entry COC(=O)C1=C(OC(=O)/C(=C/c2ccccc2)c2ccc(Cl)cc2Cl)C(C(=O)OC)[C@@]2(O)[C@@H](C(=O)OC)[C@H](C)C[C@@H]1[C@@H]2C(=O)OC (stereo partly drawn) , please look it up.
Result string: > 100 µM

====

# Tested on: SF-539 CNS
# Experiment notes: NCI tumour cell line growth inhibition, 48 h; in the data active = GI50 below about 0.43 µM; inactive = the rest
Write down one outcome, taken from active, inactive

- Compound: "C#CC1(O)C(COP(=O)(O)OCC(COP(=O)(O)OCC2OC(n3cc(F)c(=O)[nH]c3=O)CC2O)OCCCCCCCCCCCCCCCCCC)OC(n2ccc(N)nc2=O)C1O (centres undefined)"
  Classification: "active"
- Compound: "CCC[CH2][Sn]([CH2]CCC)([O]C(=O)CN)[O]C(=O)CN"
  Classification: "inactive"
- Compound: "Cc1cn(-c2cc(NC(=O)c3cccc(C#Cc4cccc5[nH]nc(N)c45)c3)cc(C(F)(F)F)c2)cn1"
  Classification: "inactive"

Query string: Fill in: this test's call for Cc1nnc(-c2ccc(C)c(-c3ccc(C(=O)Nc4cccc(C#N)c4)cc3)c2)o1 is ___
Result string: inactive

====

# System: NCI-H522 lung
# Experiment notes: NCI tumour cell line growth inhibition, 48 h
Reported endpoint: TGI (µM)
Lab book: enter the figure in µM, no units written.

- Molecule: "COC(=O)[C@@H]1C=C[C@H](OC2OC(COC(C)=O)C(OC(C)=O)C(OC(C)=O)C2OC(C)=O)n2c(=O)n(-c3ccccc3)c(=O)n21 (stereo partly drawn)"
  Reported endpoint: "TGI"
  Value observed: 1.07
- Molecule: "O=C1C(=O)c2ccccc2C(O)=C1C(C1=C(O)c2ccccc2C(=O)C1=O)c1ccc(Cl)cc1"
  Reported endpoint: "TGI"
  Value observed: 27.3

Query string: Give the measured TGI of COc1cc2c(cc1O)c(O)cc1c3cc(OC)c(OC)cc3c[n+](C)c21 .
Result string: 25.2

====

# System: SNB-19 CNS
# Experiment notes: NCI tumour cell line growth inhibition, 48 h
Reported endpoint: TGI

Query string: Need TGI of NC(=Nc1ccccc1Cl)c1ccccc1N , thanks.
Result string: > 100 µM

Query string: Record request: TGI value, item N[C@H](C(=O)O)[C@@H]1CC(Cl)=NO1
Result string: > 661 µM

Query string: Requested read-out: TGI. Entry: COc1cc(Nc2ncccc2C(=O)Nc2nc3ccc(F)cc3s2)cc(OC)c1OC
Result string: > 100 µM

Query string: Data request, read-out TGI, for Cc1cccc(Cl)c1NCC(O)CN1CCN(C)CC1 (centres undefined)
Result string: > 100 µM

Query string: # get_value(readout='TGI', item= O=C(O)CCC1CCc2cccc(O)c2C1=O (centres undefined) )
Result string: > 100 µM

Query string: // query TGI value for entry CCCC1(CC(=O)O)OCCc2c1[nH]c1ccccc21 (centres undefined)
Result string: > 100 µM

Query string: Would you mind telling me what TGI value was observed for CC(=O)C1C(c2ccccc2)C2(C)OC(=O)C(C#N)C12C (centres undefined) ?
Result string: > 100 µM

Query string: Which value of TGI has been reported for C=CC[P@]1(=O)O[C@H](c2ccccc2)[C@H](C)N1C in the records?
Result string: > 100 µM

Query string: Fill in the blank: the reported TGI of N#CCC(=O)N/N=C1/C(=O)N(c2ccc(Cl)cc2)C(=O)C(=O)C1c1nc2ccccc2s1 (centres undefined) is ____.
Result string: > 100 µM

Query string: Form field: reported TGI of COc1cc(C2c3cc4c(cc3OC(C)(N3CCCC3)C2C)OCO4)cc(OC)c1OC (centres undefined)
Result string: > 100 µM

Reference for the values: PubChem BioAssay (NCI)
